The values you see were collected from patent US10168342B2.

SYSTEM NAME: AEA-DA lipid probe targets in Neuro2a cells (Mus musculus, UniProt Q9CQM2)
Sequence (Q9CQM2 whole entry): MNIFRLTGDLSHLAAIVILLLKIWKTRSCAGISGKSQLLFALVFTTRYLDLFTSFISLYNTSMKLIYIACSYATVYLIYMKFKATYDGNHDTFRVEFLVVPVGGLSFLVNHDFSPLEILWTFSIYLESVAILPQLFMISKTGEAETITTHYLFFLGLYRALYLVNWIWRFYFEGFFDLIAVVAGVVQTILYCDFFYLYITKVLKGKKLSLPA
CONDITIONS USED: competitor 25 μM
READOUT KIND: SILAC ratio, Kdelr2
// return just the number, without any unit appended

- COMPOUND: "CN1CCN(C(=O)c2[nH]c3ccc([N+](=O)[O-])cc3c2-c2ccccc2)CC1"
  SILAC ratio, Kdelr2: 1.2
- COMPOUND: "CN1CCN(C(=O)c2c(-c3ccccc3)c3cc([N+](=O)[O-])ccc3n2C)CC1"
  SILAC ratio, Kdelr2: 1.3
- COMPOUND: "O=C(/C=C/c1cccnc1)NCCCCC1CCN(C(=O)c2ccccc2)CC1 [FK-866, reference compound]"
  SILAC ratio, Kdelr2: 1.2

Inquiry: Fill blank: measured SILAC ratio, Kdelr2 of the compound C=CCN(C)CCCCCCOc1ccc(C(=O)c2ccc(Br)cc2)c(F)c1 [Ro 48-8071, reference compound] is ____.
Reply text: 0.9

###

SYSTEM NAME: AEA-DA lipid probe targets in Neuro2a cells (Mus musculus, UniProt Q925I1)
Sequence (Q925I1 whole entry): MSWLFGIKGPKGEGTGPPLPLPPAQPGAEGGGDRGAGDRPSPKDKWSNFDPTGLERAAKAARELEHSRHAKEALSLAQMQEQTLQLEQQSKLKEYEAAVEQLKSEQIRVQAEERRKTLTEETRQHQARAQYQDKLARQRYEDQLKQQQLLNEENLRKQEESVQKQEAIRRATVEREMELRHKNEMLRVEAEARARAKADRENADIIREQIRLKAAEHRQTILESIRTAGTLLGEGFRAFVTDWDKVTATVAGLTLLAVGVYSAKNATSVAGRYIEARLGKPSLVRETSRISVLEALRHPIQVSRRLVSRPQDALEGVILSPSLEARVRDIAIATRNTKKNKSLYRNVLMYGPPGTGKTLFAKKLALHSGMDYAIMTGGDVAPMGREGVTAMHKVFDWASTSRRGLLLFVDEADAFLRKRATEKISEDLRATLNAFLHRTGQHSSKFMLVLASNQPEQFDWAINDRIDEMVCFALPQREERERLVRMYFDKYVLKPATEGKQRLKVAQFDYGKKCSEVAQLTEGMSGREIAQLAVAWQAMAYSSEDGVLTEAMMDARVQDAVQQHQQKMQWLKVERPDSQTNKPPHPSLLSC
CONDITIONS USED: competitor 25 μM
Here the recorded SILAC ratio Atad3 is given for each entry.

// below: answered compounds
- COMPOUND: "CN1CCN(C(=O)c2c(-c3ccccc3)c3cc([N+](=O)[O-])ccc3n2C)CC1"
  READOUT KIND: "SILAC ratio Atad3"
  RESULT VALUE: 1.2
- COMPOUND: "C=CCN(C)CCCCCCOc1ccc(C(=O)c2ccc(Br)cc2)c(F)c1 [Ro 48-8071, reference compound]"
  READOUT KIND: "SILAC ratio Atad3"
  RESULT VALUE: 1.0
- COMPOUND: "O=C(/C=C/c1cccnc1)NCCCCC1CCN(C(=O)c2ccccc2)CC1 [FK-866, reference compound]"
  READOUT KIND: "SILAC ratio Atad3"
  RESULT VALUE: 1.2

Shift focus to the following entry.
Inquiry: Fill blank: measured SILAC ratio Atad3 of the compound "CN1CCN(C(=O)c2[nH]c3ccc([N+](=O)[O-])cc3c2-c2ccccc2)CC1" is ____.
Reply text: 1.4

###

Here the recorded SILAC ratio Timm50 is given for each entry.
SYSTEM NAME: AEA-DA lipid probe targets in Neuro2a cells (Mus musculus)
CONDITIONS USED: competitor 25 μM
// return just the number, without any unit appended

Inquiry: AEA-DA lipid probe targets in Neuro2a cells (Mus musculus) / SILAC ratio Timm50 / "CN1CCN(C(=O)c2[nH]c3ccc([N+](=O)[O-])cc3c2-c2ccccc2)CC1" : value?
Reply text: 1.3

Inquiry: AEA-DA lipid probe targets in Neuro2a cells (Mus musculus) / SILAC ratio Timm50 / C=CCN(C)CCCCCCOc1ccc(C(=O)c2ccc(Br)cc2)c(F)c1 [Ro 48-8071, reference compound] : value?
Reply text: 0.9

Inquiry: AEA-DA lipid probe targets in Neuro2a cells (Mus musculus) / SILAC ratio Timm50 / O=C(/C=C/c1cccnc1)NCCCCC1CCN(C(=O)c2ccccc2)CC1 [FK-866, reference compound] : value?
Reply text: 1.1

Inquiry: AEA-DA lipid probe targets in Neuro2a cells (Mus musculus) / SILAC ratio Timm50 / "CN1CCN(C(=O)c2c(-c3ccccc3)c3cc([N+](=O)[O-])ccc3n2C)CC1" : value?
Reply text: 1.1

###

SYSTEM NAME: AEA-DA lipid probe targets in Neuro2a cells (Mus musculus)
Sequence (Q6GV12 26-332): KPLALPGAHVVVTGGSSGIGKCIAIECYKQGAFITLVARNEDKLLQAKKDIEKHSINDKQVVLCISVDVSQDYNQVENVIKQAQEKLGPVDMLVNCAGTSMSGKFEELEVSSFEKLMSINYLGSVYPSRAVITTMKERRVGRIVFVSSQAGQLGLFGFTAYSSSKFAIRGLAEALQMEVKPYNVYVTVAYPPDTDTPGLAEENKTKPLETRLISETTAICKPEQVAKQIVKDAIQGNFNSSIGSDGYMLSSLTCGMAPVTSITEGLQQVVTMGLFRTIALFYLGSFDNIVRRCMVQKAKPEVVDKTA
CONDITIONS USED: competitor 25 μM
Here the recorded SILAC ratio, Kdsr is given for each entry.
// return just the number, without any unit appended

- MOLECULE: "CN1CCN(C(=O)c2c(-c3ccccc3)c3cc([N+](=O)[O-])ccc3n2C)CC1 [KML110]"
  SILAC ratio, Kdsr: 1.6

Inquiry: Fill blank: measured SILAC ratio, Kdsr of the molecule CN1CCN(C(=O)c2[nH]c3ccc([N+](=O)[O-])cc3c2-c2ccccc2)CC1 [MJN228] is ____.
Reply text: 1.5

Inquiry: Fill blank: measured SILAC ratio, Kdsr of the molecule C=CCN(C)CCCCCCOc1ccc(C(=O)c2ccc(Br)cc2)c(F)c1 [Ro 48-8071, reference compound] is ____.
Reply text: 1.6

Inquiry: Fill blank: measured SILAC ratio, Kdsr of the molecule O=C(/C=C/c1cccnc1)NCCCCC1CCN(C(=O)c2ccccc2)CC1 [FK-866, reference compound] is ____.
Reply text: 1.1

###

Here the recorded SILAC ratio, Prkar1a is given for each entry.
SYSTEM NAME: AEA-DA lipid probe targets in Neuro2a cells (Mus musculus)
CONDITIONS USED: competitor 25 μM
// return just the number, without any unit appended

// below: answered compounds
- COMPOUND: "CN1CCN(C(=O)c2c(-c3ccccc3)c3cc([N+](=O)[O-])ccc3n2C)CC1"
  SILAC ratio, Prkar1a: 1.6
- COMPOUND: "O=C(/C=C/c1cccnc1)NCCCCC1CCN(C(=O)c2ccccc2)CC1 [FK-866, reference compound]"
  SILAC ratio, Prkar1a: 1.5
- COMPOUND: "CN1CCN(C(=O)c2[nH]c3ccc([N+](=O)[O-])cc3c2-c2ccccc2)CC1"
  SILAC ratio, Prkar1a: 1.9

Shift focus to the following entry.
Inquiry: Fill blank: measured SILAC ratio, Prkar1a of the compound C=CCN(C)CCCCCCOc1ccc(C(=O)c2ccc(Br)cc2)c(F)c1 [Ro 48-8071, reference compound] is ____.
Reply text: 1.0

###

SYSTEM NAME: AEA-DA lipid probe targets in Neuro2a cells (Mus musculus)
CONDITIONS USED: competitor 25 μM
Here the recorded SILAC ratio, Kdelr3 is given for each entry.

- COMPOUND: "C=CCN(C)CCCCCCOc1ccc(C(=O)c2ccc(Br)cc2)c(F)c1 [Ro 48-8071, reference compound]"
  SILAC ratio, Kdelr3: 0.9
- COMPOUND: "CN1CCN(C(=O)c2c(-c3ccccc3)c3cc([N+](=O)[O-])ccc3n2C)CC1"
  SILAC ratio, Kdelr3: 1.2
- COMPOUND: "CN1CCN(C(=O)c2[nH]c3ccc([N+](=O)[O-])cc3c2-c2ccccc2)CC1"
  SILAC ratio, Kdelr3: 1.3

Inquiry: Fill blank: measured SILAC ratio, Kdelr3 of the compound O=C(/C=C/c1cccnc1)NCCCCC1CCN(C(=O)c2ccccc2)CC1 [FK-866, reference compound] is ____.
Reply text: 1.1

###

SYSTEM NAME: AEA-DA lipid probe targets in Neuro2a cells (Mus musculus)
Sequence (Q8K411 16-1036): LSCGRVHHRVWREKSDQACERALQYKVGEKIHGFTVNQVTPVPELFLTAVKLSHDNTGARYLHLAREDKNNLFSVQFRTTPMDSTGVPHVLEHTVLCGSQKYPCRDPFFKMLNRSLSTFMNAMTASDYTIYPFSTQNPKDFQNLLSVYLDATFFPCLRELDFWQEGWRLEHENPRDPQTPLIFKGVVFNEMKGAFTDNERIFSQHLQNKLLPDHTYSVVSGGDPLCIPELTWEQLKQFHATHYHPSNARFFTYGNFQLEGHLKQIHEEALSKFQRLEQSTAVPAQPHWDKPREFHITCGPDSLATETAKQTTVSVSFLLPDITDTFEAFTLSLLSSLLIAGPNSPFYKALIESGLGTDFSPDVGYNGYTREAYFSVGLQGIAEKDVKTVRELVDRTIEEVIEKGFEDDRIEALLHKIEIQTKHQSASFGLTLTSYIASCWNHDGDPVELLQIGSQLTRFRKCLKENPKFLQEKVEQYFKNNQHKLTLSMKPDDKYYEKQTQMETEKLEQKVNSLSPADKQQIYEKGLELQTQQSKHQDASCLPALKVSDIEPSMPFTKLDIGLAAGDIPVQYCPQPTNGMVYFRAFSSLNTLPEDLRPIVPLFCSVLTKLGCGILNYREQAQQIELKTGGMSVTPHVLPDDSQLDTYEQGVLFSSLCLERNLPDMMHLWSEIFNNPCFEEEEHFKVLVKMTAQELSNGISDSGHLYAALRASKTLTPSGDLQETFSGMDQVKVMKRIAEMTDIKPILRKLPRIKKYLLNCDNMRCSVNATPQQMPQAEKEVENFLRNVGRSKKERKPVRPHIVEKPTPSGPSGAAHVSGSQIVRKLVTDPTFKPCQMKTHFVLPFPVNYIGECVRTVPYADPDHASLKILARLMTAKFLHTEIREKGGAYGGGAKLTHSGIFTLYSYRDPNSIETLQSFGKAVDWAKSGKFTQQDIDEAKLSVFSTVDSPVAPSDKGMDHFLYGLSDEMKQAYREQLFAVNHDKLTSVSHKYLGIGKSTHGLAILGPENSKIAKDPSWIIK
CONDITIONS USED: competitor 25 μM
Here the recorded SILAC ratio, Pitrm1 is given for each entry.

- COMPOUND: "CN1CCN(C(=O)c2[nH]c3ccc([N+](=O)[O-])cc3c2-c2ccccc2)CC1 [MJN228]"
  RESULT VALUE: 1.9
- COMPOUND: "CN1CCN(C(=O)c2c(-c3ccccc3)c3cc([N+](=O)[O-])ccc3n2C)CC1 [KML110]"
  RESULT VALUE: 2.0
- COMPOUND: "O=C(/C=C/c1cccnc1)NCCCCC1CCN(C(=O)c2ccccc2)CC1 [FK-866, reference compound]"
  RESULT VALUE: 1.4

Shift focus to the following entry.
Inquiry: Fill blank: measured SILAC ratio, Pitrm1 of the compound C=CCN(C)CCCCCCOc1ccc(C(=O)c2ccc(Br)cc2)c(F)c1 [Ro 48-8071, reference compound] is ____.
Reply text: 1.0
